- test-protocol: Half life in human liver microsomes in presence of NADPH regeneration system
property: t1/2 (h)

a = COc1cc(C(=O)c2c[nH]c(-c3c[nH]c4ccccc34)n2)cc2c1OCO2
b = O=C(c1ccc2c(c1)OCCO2)c1c[nH]c(-c2c[nH]c3ccccc23)n1
Input: Of a versus b , which is the one with smaller reported t1/2? Kindly give the label for the entry you pick.
Output: a

P = COc1cc(C(=O)c2c[nH]c(-c3c[nH]c4ccccc34)n2)cc2c1OCCO2
Q = O=C(c1ccc2c(c1)OCO2)c1c[nH]c(-c2c[nH]c3ccccc23)n1
Input: Param pair: P , Q . Output: the one whose t1/2 is numerically greater. Bench note: the answer is the label of the chosen record.
Output: Q

###

- test-protocol: Intrinsic clearance in human liver microsomes in presence of NADPH regeneration system
- cond: microsomes
property: CLint scaled (mL/min/kg)
Give your result in mL/min/kg as a bare value.

Input: Any idea what its CLint scaled is? The compound is COc1cc(C(=O)c2c[nH]c(-c3c[nH]c4ccccc34)n2)cc2c1OCO2
Output: 16.3

###

- test-protocol: Intrinsic clearance in human liver microsomes in presence of NADPH regeneration system
- cond: liver microsomes
property: CLint scaled (L/h/kg)

Below are worked cases with known answers.
Input: Please report the recorded CLint scaled for O=C(c1ccc2c(c1)OCO2)c1c[nH]c(-c2c[nH]c3ccccc23)n1 .
Output: 0.33

Input: Please do the same for COc1cc(C(=O)c2c[nH]c(-c3c[nH]c4ccccc34)n2)cc2c1OC=CO2 as well.
Output: 0.462

I = COc1cc(C(=O)c2c[nH]c(-c3c[nH]c4ccccc34)n2)cc2c1OCCO2
II = O=C(c1ccc2c(c1)OCCO2)c1c[nH]c(-c2c[nH]c3ccccc23)n1
Input: Of the pair I and II , name the member with the lesser recorded CLint scaled. Your choice should be expressed through its label.
Output: II

###

- test-protocol: Intrinsic clearance in mouse liver microsomes in presence of NADPH regeneration system
- cond: liver microsomes
property: CLint scaled (mL/min/kg)

1 = O=C(c1ccc2c(c1)OCCO2)c1c[nH]c(-c2c[nH]c3ccccc23)n1
2 = O=C(c1ccc2c(c1)OCO2)c1c[nH]c(-c2c[nH]c3ccccc23)n1
Input: So which one has the bigger CLint scaled here, 1 or 2 ? Your answer should be the label of the entry you select.
Output: 1

###

- System: A-375
- test-protocol: Cytotoxicity in human A375 cells assessed as reduction in cell viability incubated for 72 hrs by MTS assay
- Type: functional, cell-based
- cond: A-375, 72 h
property: pIC50
FYI, pIC50 means -log10 of a concentration in mol per litre.

Input: What pIC50 value was documented for this molecule, O=C(c1ccc2c(c1)OCO2)c1c[nH]c(-c2c[nH]c3ccccc23)n1 ?
Output: 6.72

Input: Lookup O=C(c1ccc2c(c1)OCCO2)c1c[nH]c(-c2c[nH]c3ccccc23)n1
Output: 6.80

Input: Note, next up: COc1cc(C(=O)c2c[nH]c(-c3c[nH]c4ccccc34)n2)cc2c1OCCO2
Output: 7.68

In the following, a different molecule is considered.
Input: Find the recorded pIC50 belonging to COc1cc(C(=O)c2c[nH]c(-c3c[nH]c4ccccc34)n2)cc2c1OCO2 and report it.
Output: 8.46

Ref: ChEMBL document CHEMBL4145696
